system: MM.1S cells; assay: Inhibitory effect on the proliferation of MM.1S, MTS cell viability test; type: cell-based; settings: Homo sapiens, MM1.S, 168 h, multiple myeloma MM.1S cells, 7 days incubation, read-out: Tumor cell inhibitory activity
pIC50: −log10 of the molar value.
Each item that follows carries a reported pIC50.

compound	tested-on	pIC50
CC(=O)N[C@@H](CCCc1cccc2c1CN(C1CCC(=O)NC1=O)C2=O)C(=O)N[C@H]1CCc2ccccc21 (stereo partly drawn)	MM.1S cells	6.00 to 7.00
O=C1CCC(N2Cc3c(CCCCCN4CCC5(CC4)C(=O)Nc4c(Cl)cccc45)cccc3C2=O)C(=O)N1 (stereo not drawn)	MM.1S cells	6.00 to 7.00
CC(=O)N[C@@H](CCCc1cccc2c1CN(C1CCC(=O)NC1=O)C2=O)C(=O)Nc1ccccc1-c1cccnc1 (stereo partly drawn)	MM.1S cells	4.70 to 6.00
N#CC1(c2cccc(OC(F)(F)F)c2)CCN(CCCOc2cccc3c2CN(C2CCC(=O)NC2=O)C3=O)CC1 (stereo not drawn)	MM.1S cells	> 7.00
O=C1CCC(N2Cc3c(CCCCCN4CCC5(CC4)C(=O)Nc4cccc(Cl)c45)cccc3C2=O)C(=O)N1 (stereo not drawn)	MM.1S cells	6.00 to 7.00
Cc1ccc(NC(=O)NCCOc2cccc3c2CN(C2CCC(=O)NC2=O)C3=O)cc1Cl (stereo not drawn)	MM.1S cells	> 7.00
N#CC1(c2ccccc2Cl)CCN(CCOc2cccc3c2CN(C2CCC(=O)NC2=O)C3=O)CC1 (stereo not drawn)	MM.1S cells	6.00 to 7.00
COc1ccc(C2(C#N)CCN(CCCCCc3cccc4c3CN(C3CCC(=O)NC3=O)C4=O)CC2)c(Cl)c1 (stereo not drawn)	MM.1S cells	6.00 to 7.00
O=C1CCC(N2Cc3c(CCCCN4CCN(c5cccc6ccsc56)CC4)cccc3C2=O)C(=O)N1 (stereo not drawn)	MM.1S cells	> 7.00
O=C1CCC(N2Cc3c(CCCCCCN4CCN(c5cccc(Cl)c5Cl)CC4)cccc3C2=O)C(=O)N1 (stereo not drawn)	MM.1S cells	> 7.00
COc1ccc(C2(C#N)CCN(CCCCc3cccc4c3CN(C3CCC(=O)NC3=O)C4=O)CC2)c(Cl)c1 (stereo not drawn)	MM.1S cells	6.00 to 7.00
O=C1CCC(N2Cc3c(CCCCN4CCN(c5cccc(C(F)(F)F)c5)CC4)cccc3C2=O)C(=O)N1 (stereo not drawn)	MM.1S cells	> 7.00
N#CC1(c2ccc(OC(F)(F)F)cc2)CCN(CCCCc2cccc3c2CN(C2CCC(=O)NC2=O)C3=O)CC1 (stereo not drawn)	MM.1S cells	> 7.00
N#CC1(c2cccc(Cl)c2)CCN(CCCCOc2cccc3c2CN(C2CCC(=O)NC2=O)C3=O)CC1 (stereo not drawn)	MM.1S cells	6.00 to 7.00
N#CC1(c2ccc(Cl)cc2)CCN(CCCCCOc2cccc3c2CN(C2CCC(=O)NC2=O)C3=O)CC1 (stereo not drawn)	MM.1S cells	> 7.00

* * *

tested on: MM.1S cells; assay: Inhibitory effect on the proliferation of MM.1S, MTS cell viability test; assay type: cell-based; details: Homo sapiens, MM1.S, 168 h, multiple myeloma MM.1S cells, 7 days incubation, read-out: Tumor cell inhibitory activity

molecule	tested-on	IC50
O=C1CCC(N2Cc3c(OCCCCCN4CCC5(CC4)OCc4ccc(Cl)cc45)cccc3C2=O)C(=O)N1 (stereo not shown)	MM.1S cells	< 100 nM
N#CC1(c2ccc(F)cc2)CCN(CCCOc2cccc3c2CN(C2CCC(=O)NC2=O)C3=O)CC1 (stereo not shown)	MM.1S cells	100 to 1000 nM
O=C1CCC(N2Cc3c(CCCOc4ccnc5ccccc45)cccc3C2=O)C(=O)N1 (stereo not shown)	MM.1S cells	100 to 1000 nM
Cc1ccc2nc(C(F)(F)F)cc(OCCCCCc3cccc4c3CN(C3CCC(=O)NC3=O)C4=O)c2c1 (stereo not shown)	MM.1S cells	100 to 1000 nM

* * *

test system: MM.1S cells; assay: Inhibitory effect on the proliferation of MM.1S, MTS cell viability test; format: cell-based; details: Homo sapiens, MM1.S, 168 h, multiple myeloma MM.1S cells, 7 days incubation, read-out: Tumor cell inhibitory activity

molecule	IC50
C[C@]1(N2C(=O)c3cccc(OCCCN4CCC(C#N)(c5cccc(Cl)c5)CC4)c3C2=O)CCC(=O)NC1=O	1000 to 20000 nM
N#Cc1ccc(C2(C#N)CCN(CCCOc3cccc4c3CN(C3CCC(=O)NC3=O)C4=O)CC2)cc1 (stereo not drawn)	100 to 1000 nM
N#CC1(c2ccc(Cl)cc2)CCN(CCCCOc2cccc3c2CN(C2CCC(=O)NC2=O)C3=O)CC1 (stereo not drawn)	100 to 1000 nM
Cc1cc(OCCCCOc2cc(F)cc3c2CN(C2CCC(=O)NC2=O)C3=O)c2ccccc2n1 (stereo not drawn)	< 100 nM
[2H]c1c([2H])c([2H])c(N2CCN(CCCCCc3cccc4c3CN(C3CCC(=O)NC3=O)C4=O)CC2)c([2H])c1[2H] (stereo not drawn)	100 to 1000 nM
CC(=O)N[C@@H](CCCc1cccc2c1CN(C1CCC(=O)NC1=O)C2=O)C(=O)NC12CC3CC(CC(C3)C1)C2 (stereo partly drawn)	< 100 nM
Nc1cccc2c1C(=O)N(C1CCC(=O)NC1=O)C2=O (stereo not drawn) [Pomalidomide, pomalidomide, reference compound]	< 100 nM
O=C1CCC(N2Cc3c(OCCNC(=O)N4CCC5(CC4)OCc4ccc(Cl)cc45)cccc3C2=O)C(=O)N1 (stereo not drawn)	< 100 nM
O=C1CCC(N2Cc3c(OCCCCN4CCN(c5cccc6ccsc56)CC4)cccc3C2=O)C(=O)N1 (stereo not drawn)	1000 to 20000 nM
O=C1CCC(N2Cc3c(CCCCCN4CCC5(CC4)COc4ccccc45)cccc3C2=O)C(=O)N1 (stereo not drawn)	100 to 1000 nM
CC(=O)N[C@@H](CCCc1cccc2c1CN(C1CCC(=O)NC1=O)C2=O)C(=O)NC(c1ccccc1)c1ccccc1 (stereo partly drawn)	100 to 1000 nM
O=C1CCC(N2Cc3c(OCCNC(=O)N4CCN(c5cccc(Cl)c5Cl)CC4)cccc3C2=O)C(=O)N1 (stereo not drawn)	100 to 1000 nM
O=C1CCC(N2Cc3c(OCCCC(=O)N4CCN(c5ccccc5)CC4)cccc3C2=O)C(=O)N1 (stereo not drawn)	< 100 nM
O=C1CCC(N2C(=O)c3cccc(OCCCCOc4ccnc5ccccc45)c3C2=O)C(=O)N1 (stereo not drawn)	< 100 nM
O=C1CCC(N2Cc3c(OCCCCC(=O)N4CCN(c5ccccc5)CC4)cccc3C2=O)C(=O)N1 (stereo not drawn)	< 100 nM
O=C1CCC(N2Cc3c(CCCCN4CCN(c5cccc(Cl)c5Cl)CC4)cccc3C2=O)C(=O)N1 (stereo not drawn)	< 100 nM
O=C1CCC(N2Cc3c(CCCCN4CCN(c5ccc(Cl)cc5Cl)CC4)cccc3C2=O)C(=O)N1 (stereo not drawn)	< 100 nM
N#CC1(c2ccc(Cl)c(Cl)c2)CCN(CCCCc2cccc3c2CN(C2CCC(=O)NC2=O)C3=O)CC1 (stereo not drawn)	100 to 1000 nM
COc1ccc(C2(C#N)CCN(CCCCCc3cccc4c3CN(C3CCC(=O)NC3=O)C4=O)CC2)cc1OC (stereo not drawn)	100 to 1000 nM
O=C1CCC(N2Cc3c(CCCCCN4CCc5ccc(Br)cc54)cccc3C2=O)C(=O)N1 (stereo not drawn)	100 to 1000 nM
N#CC1(c2ccccc2Cl)CCN(C(=O)CCCOc2cccc3c2CN(C2CCC(=O)NC2=O)C3=O)CC1 (stereo not drawn)	100 to 1000 nM
O=C1CCC(N2Cc3c(CCCCCN4CCN(c5nsc6ccccc56)CC4)cccc3C2=O)C(=O)N1 (stereo not drawn)	1000 to 20000 nM
O=C1CCC(N2Cc3c(CCCCN4CCN(c5ccc(C(F)(F)F)cc5)CC4)cccc3C2=O)C(=O)N1 (stereo not drawn)	< 100 nM
CC(=O)N[C@@H](CCCc1cccc2c1CN(C1CCC(=O)NC1=O)C2=O)c1nc2ccncc2[nH]1 (stereo partly drawn)	> 20000 nM
N#CC1(c2ccccc2F)CCN(CCCOc2cccc3c2CN(C2CCC(=O)NC2=O)C3=O)CC1 (stereo not drawn)	100 to 1000 nM
N#CC1(c2ccccc2Cl)CCN(CCCCc2cccc3c2CN(C2CCC(=O)NC2=O)C3=O)CC1 (stereo not drawn)	< 100 nM
N#Cc1cccc(C2(C#N)CCN(CCCOc3cccc4c3CN(C3CCC(=O)NC3=O)C4=O)CC2)c1 (stereo not drawn)	100 to 1000 nM
Cc1cc(C)c(C2(C#N)CCN(CCCCCc3cccc4c3CN(C3CCC(=O)NC3=O)C4=O)CC2)c(C)c1 (stereo not drawn)	1000 to 20000 nM
CC(C)C(=O)N[C@@H](CCCc1cccc2c1CN(C1CCC(=O)NC1=O)C2=O)C(=O)NCc1ccccc1 (stereo partly drawn)	< 100 nM
N#CC1(c2ccc(Cl)cc2)CCN(CCCCCc2cccc3c2CN(C2CCC(=O)NC2=O)C3=O)CC1 (stereo not drawn)	< 100 nM

Origin of values: patent US12459921B2
